Tested on: all of the 9 strains tested
Type: cell-based, Gram-positive and Gram-negative bacteria
Run conditions: against all of the 9 strains tested
Protocol: Table 1 summarizes the MIC values of our model peptide isomers against various bacterial species, including four Gram-positive, five Gram-negative and a multi-drug resistant strain. […] In addition, all of the peptides were fairly active (MICs ≤ 16 μg/mL) against the MRSA-TK784 strain, which is not susceptible to β-lactam antibiotics and protein synthesis inhibitors and moderately resistant to vancomycin [21, 42]. […]
No end group written: not given here.
Measurement label: GM (geometric mean of MICs), Gram (+,−)

Quick one: GM (geometric mean of MICs), Gram (+,−) for LKKLLKKLLKW-NH2 [W11] ?
2.9 µg/mL

Ok, now KWLKKLLKKLL-NH2 [W2]
2.3 µg/mL

Ok, now LLKKLLKWLKK-NH2 [W8]
4.0 µg/mL

Ok, now KKLLKWLKKLL-NH2 [W6]
3.2 µg/mL

Ok, now KLLKWLKKLLK-NH2 [W5]
2.3 µg/mL

Ok, now KLLKKLLKWLK-NH2 [W9]
2.3 µg/mL

Ok, now KKLLKKLLKWL-NH2 [W10]
1.5 µg/mL

Ok, now LLKWLKKLLKK-NH2 [W4]
2.9 µg/mL

Ok, now WLKKLLKKLLK-NH2 [W1]
2.7 µg/mL

Ok, now LKKLLKWLKKL-NH2 [W7]
2.7 µg/mL

Ok, now LKWLKKLLKKL-NH2 [W3]
3.2 µg/mL

// provenance: paper PMC6270530
